- System: Escherichia coli KCTC 1682
Kindly supply the reported MIC values for the records listed here.

// known answers, use as guide
{"columns": ["molecule", "MIC"],
 "data": [
  ["CC[C@H](C)[C@H](NC(=O)[C@H](CCCCN)NC(=O)[C@H](Cc1c[nH]c2ccccc12)NC(=O)[C@@H](N)CCCN=C(N)N)C(=O)N[C@@H](Cc1ccccc1)C(=O)N[C@@H](CCCCN)C(=O)N[C@@H](CCCCN)C(=O)N[C@H](C(=O)N[C@H](C(=O)N[C@@H](CCCCN)C(=O)N[C@@H](CCCCN)C(=O)N[C@@H](C)C(N)=O)C(C)C)C(C)C [RWKIFKKVVKKA]", "8 µM"],
  ["CC(C)C[C@H](NC(=O)[C@H](Cc1ccccc1)NC(=O)[C@H](CCCCN)NC(=O)[C@H](Cc1c[nH]c2ccccc12)NC(=O)[C@H](Cc1c[nH]c2ccccc12)NC(=O)[C@H](Cc1c[nH]c2ccccc12)NC(=O)[C@H](CCCCN)NC(=O)[C@H](Cc1ccccc1)NC(=O)[C@H](CCCN=C(N)N)NC(=O)[C@H](CCCN=C(N)N)NC(=O)[C@@H](N)C(C)C)C(=O)N[C@@H](CCCN=C(N)N)C(=O)N[C@@H](CCCN=C(N)N)C(N)=O [VRRFKWWWKFLRR]", "2 µM"],
  ["CC[C@H](C)[C@H](NC(=O)[C@H](CCCCN)NC(=O)[C@H](CCCCN)NC(=O)[C@H](Cc1ccccc1)NC(=O)[C@@H](N)Cc1c[nH]c2ccccc12)C(=O)N1CCC[C@H]1C(=O)N[C@@H](CCCCN)C(=O)N[C@@H](Cc1ccccc1)C(=O)N[C@@H](CC(C)C)C(=O)N[C@@H](Cc1cnc[nH]1)C(=O)N[C@@H](CC(C)C)C(=O)N[C@@H](C)C(=O)N[C@@H](CCCCN)C(=O)N[C@@H](CCCCN)C(=O)N[C@@H](Cc1ccccc1)C(N)=O [WFKKIPKFLHLAKKF]", "12.5 µM"],
  ["CC[C@H](C)[C@H](NC(=O)[C@H](CCCCN)NC(=O)[C@H](CCCCN)NC(=O)[C@H](Cc1ccccc1)NC(=O)[C@@H](NC(=O)[C@H](CCCCN)NC(=O)[C@H](Cc1c[nH]c2ccccc12)NC(=O)[C@@H](N)CCCN=C(N)N)[C@@H](C)CC)C(=O)N[C@@H](CCC(=O)O)C(=O)N[C@@H](CCCCN)C(=O)N[C@H](C(=O)NCC(N)=O)C(C)C [RWKIFKKIEKVG]", "16 µM"]
]}

Proceed to the following item.
Report MIC for CC[C@H](C)[C@H](NC(=O)[C@H](CCCCN)NC(=O)[C@H](CC(C)C)NC(=O)[C@H](CC(C)C)NC(=O)[C@@H](N)CCCCN)C(=O)N[C@@H](Cc1c[nH]c2ccccc12)C(=O)N[C@@H](Cc1c[nH]c2ccccc12)C(=O)N[C@H](C(=O)N[C@@H](CCCCN)C(=O)N[C@H](C(=O)N[C@@H](CC(C)C)C(=O)N[C@@H](CCCCN)C(N)=O)C(C)C)[C@@H](C)CC [KLLKIWWIKVLK] please.
7.97 µM

* * *

So I've got MIC readings for Staphylococcus aureus KCTC 1621, take a look.
Answers are plain numbers, in µM.

{"columns": ["entry_smiles", "endpoint_unit", "MIC"],
 "data": [
  ["CC(C)C[C@H](NC(=O)[C@H](Cc1ccccc1)NC(=O)[C@H](CCCCN)NC(=O)[C@H](Cc1c[nH]c2ccccc12)NC(=O)[C@H](Cc1c[nH]c2ccccc12)NC(=O)[C@H](Cc1c[nH]c2ccccc12)NC(=O)[C@H](CCCCN)NC(=O)[C@H](Cc1ccccc1)NC(=O)[C@H](CCCN=C(N)N)NC(=O)[C@H](CCCN=C(N)N)NC(=O)[C@@H](N)C(C)C)C(=O)N[C@@H](CCCN=C(N)N)C(=O)N[C@@H](CCCN=C(N)N)C(N)=O", "µM", 1]
]}

Proceed to the following item.
Report MIC for CC[C@H](C)[C@H](NC(=O)CNC(=O)[C@H](CC(C)C)NC(=O)[C@H](CCCN=C(N)N)NC(=O)[C@H](CCCCN)NC(=O)[C@H](Cc1ccccc1)NC(=O)[C@@H](NC(=O)[C@H](CCCCN)NC(=O)[C@H](CCCCN)NC(=O)[C@H](C)N)C(C)C)C(=O)NCC(=O)N[C@@H](C)C(=O)N[C@H](C(=O)N[C@@H](CC(C)C)C(=O)N[C@@H](CCCCN)C(=O)N[C@H](C(=O)N[C@@H](CC(C)C)C(=O)N[C@@H](CCCCN)C(=O)N[C@@H](CCCCN)C(=O)NCC(=O)O)C(C)C)C(C)C please.
1.56

* * *

- System: Acinetobacter baumannii ATCC 19606
Kindly supply the reported MIC values for the records listed here.
Answers are plain numbers, in µM.

// known answers, use as guide
{"columns": ["entry_smiles", "MIC / µM"],
 "data": [
  ["CC[C@H](C)[C@@H]1NC(=O)CNC(=O)[C@H](C)NC(=O)[C@H](Cc2ccc(O)cc2)NC(=O)[C@@H]2CSSC[C@H](NC1=O)C(=O)N[C@@H](Cc1ccc(O)cc1)C(=O)N[C@@H](CCCN=C(N)N)C(=O)N[C@@H](CCCN=C(N)N)C(=O)N[C@H](C(=O)N[C@@H](CCCN=C(N)N)C(=O)O)CSSC[C@H](NC(=O)[C@H](Cc1c[nH]c3ccccc13)NC(=O)[C@@H](N)CCCCN)C(=O)N[C@@H](Cc1ccccc1)C(=O)N[C@@H](CCCN=C(N)N)C(=O)N[C@@H](CCCN=C(N)N)C(=O)N2", 7.14],
  ["NCC(=O)N[C@@H](CCCN=C(N)N)C(=O)N[C@@H](CCCN=C(N)N)C(=O)N[C@@H](Cc1c[nH]c2ccccc12)C(=O)N[C@@H](Cc1c[nH]c2ccccc12)C(=O)N[C@@H](Cc1c[nH]c2ccccc12)C(=O)N[C@@H](CCCN=C(N)N)C(=O)N[C@@H](CCCN=C(N)N)C(=O)NCC(N)=O", 128],
  ["CC[C@H](C)[C@H](NC(=O)[C@H](CCCN=C(N)N)NC(=O)CNC(=O)[C@H](CC(C)C)NC(=O)[C@H](Cc1ccccc1)NC(=O)[C@H](CCCCN)NC(=O)[C@H](CO)NC(=O)[C@H](Cc1ccccc1)NC(=O)[C@H](Cc1c[nH]c2ccccc12)NC(=O)[C@H](CCCN=C(N)N)NC(=O)[C@@H](NC(=O)[C@@H](N)Cc1ccccc1)C(C)C)C(=O)N[C@@H](CC(C)C)C(N)=O", 6]
]}

List MIC for every entry below, keeping the order given.
1. CC[C@H](C)[C@H](NC(=O)[C@H](Cc1c[nH]c2ccccc12)NC(=O)[C@@H](NC(=O)[C@H](Cc1c[nH]c2ccccc12)NC(=O)[C@@H]1CCCN1C(=O)[C@@H](NC(=O)[C@H](C)N)[C@@H](C)CC)[C@@H](C)CC)C(=O)N[C@@H](Cc1c[nH]c2ccccc12)C(=O)N[C@@H](CCCN=C(N)N)C(=O)N[C@@H](CC(C)C)C(=O)N[C@@H](CC(C)C)C(=O)N[C@@H](CCCN=C(N)N)C(=O)N[C@@H](CCCCN)C(=O)NCC(=O)O
2. CC[C@H](C)[C@H](N)C(=O)N[C@@H](CC(C)C)C(=O)NCC(=O)N[C@@H](CCCCN)C(=O)N[C@H](C(=O)N[C@@H](Cc1c[nH]c2ccccc12)C(=O)N[C@@H](CCC(=O)O)C(=O)NCC(=O)N[C@H](C(=O)N[C@@H](CCCCN)C(=O)N[C@@H](CO)C(=O)N[C@@H](CC(C)C)C(=O)N[C@@H](Cc1ccccc1)C(N)=O)[C@@H](C)CC)[C@@H](C)CC

[3.75, 8]

* * *

So I've got MIC readings for Escherichia coli KCTC 1682, take a look.

{"columns": ["compound", "result"],
 "data": [
  ["NC(=O)[C@H](CCCN=C(N)N)NC(=O)[C@H](Cc1c[nH]c2ccccc12)NC(=O)[C@H](CCCN=C(N)N)NC(=O)[C@@H](N)Cc1c[nH]c2ccccc12 [WRWR]", "≥ 45.5 µM"],
  ["CC[C@H](C)[C@H](N)C(=O)N[C@@H](CC(C)C)C(=O)N1CCC[C@H]1C(=O)N[C@@H](Cc1c[nH]c2ccccc12)C(=O)N[C@@H](CCCCN)C(=O)N[C@@H](Cc1c[nH]c2ccccc12)C(=O)N[C@@H](CCCCN)C(=O)N[C@@H](Cc1c[nH]c2ccccc12)C(=O)N[C@@H](Cc1c[nH]c2ccccc12)C(=O)N[C@@H](CCCCN)C(=O)N[C@@H](Cc1c[nH]c2ccccc12)C(=O)N[C@@H](CCCN=C(N)N)C(=O)N[C@@H](CCCN=C(N)N)C(N)=O [ILPWKWKWWKWRR]", "5.08 µM"],
  ["CC[C@H](C)[C@H](N)C(=O)N[C@@H](CC(C)C)C(=O)NCC(=O)N[C@@H](CCCCN)C(=O)N[C@H](C(=O)N[C@@H](Cc1c[nH]c2ccccc12)C(=O)N[C@@H](CCC(=O)O)C(=O)NCC(=O)N[C@H](C(=O)N[C@@H](CCCCN)C(=O)N[C@@H](CO)C(=O)N[C@@H](CC(C)C)C(=O)N[C@@H](Cc1ccccc1)C(N)=O)[C@@H](C)CC)[C@@H](C)CC [ILGKIWEGIKSLF]", "4 µM"],
  ["CC[C@H](C)[C@H](NC(=O)[C@H](CCCCN)NC(=O)[C@H](CCCCN)NC(=O)[C@H](Cc1ccccc1)NC(=O)[C@@H](N)Cc1c[nH]c2ccccc12)C(=O)N1CCC[C@H]1C(=O)N[C@@H](CCCCN)C(=O)N[C@@H](Cc1ccccc1)C(=O)N[C@@H](CC(C)C)C(=O)N[C@@H](Cc1cnc[nH]1)C(=O)N[C@@H](CC(C)C)C(=O)N[C@@H](CC(C)C)C(=O)N[C@@H](CCCCN)C(=O)N[C@@H](CCCCN)C(=O)N[C@@H](Cc1ccccc1)C(N)=O [WFKKIPKFLHLLKKF]", "3.12 µM"]
]}

Proceed to the following item.
Report MIC for CC[C@H](C)[C@H](NC(=O)[C@H](CCCN=C(N)N)NC(=O)[C@H](CC(C)C)NC(=O)[C@H](CCC(N)=O)NC(=O)[C@H](CCCCN)NC(=O)[C@H](CC(C)C)NC(=O)[C@H](CC(C)C)NC(=O)[C@H](CC(C)C)NC(=O)[C@@H](NC(=O)[C@H](CCCCN)NC(=O)[C@H](CC(=O)O)NC(=O)[C@H](C)NC(=O)[C@@H](NC(=O)[C@H](CCCCN)NC(=O)[C@@H](N)CCCCN)C(C)C)C(C)C)C(=O)N[C@@H](CCSC)C(=O)N[C@@H](CCCN=C(N)N)C(=O)N[C@@H](CC(C)C)C(=O)O [KKVADKVLLLKQLRIMRL] please.
16 µM
